// melting point lookup, one value per entry

The following compounds have reported results that may help.
# compound-string, recorded-endpoint, value-reported
data = [
    ("CCc1c(C(=O)c2cc(C)cc(C)c2)n(Cc2ccccn2)c(=O)[nH]c1=O", "melting point", "153 to 155 °C"),
    ("CCc1c(C(=O)c2cc(C)cc(C)c2)n(Cc2cc(Br)cc(Br)c2)c(=O)[nH]c1=O", "melting point", "234 to 236 °C"),
    ("CCc1c(C(=O)c2cc(C)cc(C)c2)n(Cc2cc(OC)cc(OC)c2)c(=O)[nH]c1=O", "melting point", "208 to 210 °C"),
    ("CCc1c(Sc2cc(C)cc(C)c2)n(Cc2nc3ccccc3o2)c(=O)[nH]c1=O", "melting point", "104 to 106 °C"),
]

Let us examine a further case.
**Query** Query (compound): Cc1cc(C)cc(Sc2c(C(C)C)c(=O)[nH]c(=O)n2Cc2cc(C(F)(F)F)cc(C(F)(F)F)c2)c1 ; field requested: melting point
**Result** 183 to 185 °C
